Some compounds, each annotated with its measured inhibition.
Biological target: EPHB3 (human)
Experiment: Caliper, Mobility shift assay off-chip
Settings: compound 0.2 µM
measure.name: inhibition (%)

[[record]]
smiles_str = "CCN(CC)CCNC(=O)c1c(C)[nH]c(/C=C2\\C(=O)Nc3ccc(F)cc32)c1C"
recorded_number = -1.7

[[record]]
smiles_str = "CNC(=O)c1cc(Oc2ccc(NC(=O)Nc3ccc(Cl)c(C(F)(F)F)c3)cc2)ccn1"
recorded_number = 0.9

[[record]]
smiles_str = "COc1cc2c(Oc3ccc4[nH]c(C)cc4c3F)ncnc2cc1OCCCN1CCCC1"
recorded_number = -1.3

[[record]]
smiles_str = "Cc1ccc(Nc2nccc(N(C)c3ccc4c(C)n(C)nc4c3)n2)cc1S(N)(=O)=O"
recorded_number = -4


----------
Target: STK4 (human) (UniProt Q13043)
Sequence (Q13043 whole entry, looked up): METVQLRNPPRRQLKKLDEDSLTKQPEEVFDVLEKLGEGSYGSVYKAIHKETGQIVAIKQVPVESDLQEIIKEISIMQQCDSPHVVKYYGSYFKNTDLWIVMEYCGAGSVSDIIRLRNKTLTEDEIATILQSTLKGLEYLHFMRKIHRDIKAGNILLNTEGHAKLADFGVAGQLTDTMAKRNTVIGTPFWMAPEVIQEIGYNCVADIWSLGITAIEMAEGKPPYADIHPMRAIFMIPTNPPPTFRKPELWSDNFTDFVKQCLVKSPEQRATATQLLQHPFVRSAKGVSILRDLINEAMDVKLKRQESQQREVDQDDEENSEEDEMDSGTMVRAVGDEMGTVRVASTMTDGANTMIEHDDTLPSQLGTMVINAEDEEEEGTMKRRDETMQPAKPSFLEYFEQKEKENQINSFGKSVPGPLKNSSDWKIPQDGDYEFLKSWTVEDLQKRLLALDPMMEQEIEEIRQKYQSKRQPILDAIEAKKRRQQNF
Test: Caliper, Mobility shift assay off-chip
Details: compound 0.2 µM
inhibition: recorded values
measure.name: inhibition (%)

[[record]]
smiles_str = "COc1cc2c(Oc3ccc4[nH]c(C)cc4c3F)ncnc2cc1OCCCN1CCCC1"
recorded_number = 9

[[record]]
smiles_str = "CNC(=O)c1cc(Oc2ccc(NC(=O)Nc3ccc(Cl)c(C(F)(F)F)c3)cc2)ccn1"
recorded_number = -3.5

[[record]]
smiles_str = "Cc1ccc(Nc2nccc(N(C)c3ccc4c(C)n(C)nc4c3)n2)cc1S(N)(=O)=O"
recorded_number = -5.1

[[record]]
smiles_str = "CCN(CC)CCNC(=O)c1c(C)[nH]c(/C=C2\\C(=O)Nc3ccc(F)cc32)c1C"
recorded_number = 92.8


----------
Biological target: NEK4 (human) (UniProt P51957)
Sequence (P51957 whole entry, looked up): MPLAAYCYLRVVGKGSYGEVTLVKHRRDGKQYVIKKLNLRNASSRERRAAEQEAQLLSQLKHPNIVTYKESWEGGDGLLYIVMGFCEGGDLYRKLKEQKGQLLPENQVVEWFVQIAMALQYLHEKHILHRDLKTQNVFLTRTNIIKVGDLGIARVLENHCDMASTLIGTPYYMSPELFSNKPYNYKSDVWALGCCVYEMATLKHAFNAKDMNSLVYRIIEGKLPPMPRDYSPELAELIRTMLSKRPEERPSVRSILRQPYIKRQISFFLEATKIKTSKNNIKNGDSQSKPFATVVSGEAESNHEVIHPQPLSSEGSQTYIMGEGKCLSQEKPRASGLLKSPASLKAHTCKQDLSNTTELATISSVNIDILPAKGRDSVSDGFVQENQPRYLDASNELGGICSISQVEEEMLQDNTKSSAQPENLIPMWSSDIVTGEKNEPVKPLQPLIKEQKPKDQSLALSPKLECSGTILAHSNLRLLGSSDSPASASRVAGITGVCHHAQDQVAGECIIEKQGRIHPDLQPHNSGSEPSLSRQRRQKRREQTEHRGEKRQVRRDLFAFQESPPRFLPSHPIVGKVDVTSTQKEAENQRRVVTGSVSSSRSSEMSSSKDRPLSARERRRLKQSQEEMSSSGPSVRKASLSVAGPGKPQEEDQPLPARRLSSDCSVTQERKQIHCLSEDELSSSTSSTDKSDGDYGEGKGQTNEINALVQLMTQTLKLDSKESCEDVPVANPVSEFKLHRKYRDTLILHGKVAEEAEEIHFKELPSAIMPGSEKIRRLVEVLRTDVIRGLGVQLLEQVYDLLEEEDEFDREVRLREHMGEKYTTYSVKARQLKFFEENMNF
Test: Caliper, Mobility shift assay off-chip
Conditions: compound 0.2 µM
measure.name: inhibition

[[record]]
smiles_str = "COc1cc2c(Oc3ccc4[nH]c(C)cc4c3F)ncnc2cc1OCCCN1CCCC1"
result = "-3.9%"

[[record]]
smiles_str = "CNC(=O)c1cc(Oc2ccc(NC(=O)Nc3ccc(Cl)c(C(F)(F)F)c3)cc2)ccn1"
result = "-0.8%"

[[record]]
smiles_str = "CCN(CC)CCNC(=O)c1c(C)[nH]c(/C=C2\\C(=O)Nc3ccc(F)cc32)c1C"
result = "-2.5%"

[[record]]
smiles_str = "Cc1ccc(Nc2nccc(N(C)c3ccc4c(C)n(C)nc4c3)n2)cc1S(N)(=O)=O"
result = "-0.8%"


----------
Target: EPHA5 (human)
Assay: Caliper, Mobility shift assay off-chip
Conditions: compound 0.02 µM
measure.name: inhibition (%)

[[record]]
smiles_str = "Cc1ccc(Nc2nccc(N(C)c3ccc4c(C)n(C)nc4c3)n2)cc1S(N)(=O)=O"
measure_name = "inhibition"
unit_descriptor = "%"
recorded_number = -2.7

[[record]]
smiles_str = "COc1cc2c(Oc3ccc4[nH]c(C)cc4c3F)ncnc2cc1OCCCN1CCCC1"
measure_name = "inhibition"
unit_descriptor = "%"
recorded_number = -0.9

[[record]]
smiles_str = "CNC(=O)c1ccccc1Sc1ccc2c(/C=C/c3ccccn3)n[nH]c2c1"
measure_name = "inhibition"
unit_descriptor = "%"
recorded_number = -3.9

[[record]]
smiles_str = "CNC(=O)c1cc(Oc2ccc(NC(=O)Nc3ccc(Cl)c(C(F)(F)F)c3)cc2)ccn1"
measure_name = "inhibition"
unit_descriptor = "%"
recorded_number = 6.1


----------
Biological target: SRMS (human) (UniProt Q9H3Y6)
Sequence (Q9H3Y6 whole entry, looked up): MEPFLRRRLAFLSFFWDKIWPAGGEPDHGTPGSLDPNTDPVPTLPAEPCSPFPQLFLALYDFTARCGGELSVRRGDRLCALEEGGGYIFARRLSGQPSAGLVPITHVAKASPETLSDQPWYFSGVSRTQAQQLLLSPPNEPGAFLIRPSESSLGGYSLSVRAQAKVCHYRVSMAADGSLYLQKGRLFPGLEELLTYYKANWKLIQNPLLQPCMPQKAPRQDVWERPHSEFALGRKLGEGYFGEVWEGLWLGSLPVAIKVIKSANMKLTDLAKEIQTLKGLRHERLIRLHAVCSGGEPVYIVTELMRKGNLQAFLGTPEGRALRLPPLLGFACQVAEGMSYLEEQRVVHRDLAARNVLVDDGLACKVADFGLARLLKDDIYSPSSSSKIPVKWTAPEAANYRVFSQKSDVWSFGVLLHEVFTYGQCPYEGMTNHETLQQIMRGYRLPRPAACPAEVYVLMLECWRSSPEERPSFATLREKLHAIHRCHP
Assay: Caliper, Mobility shift assay off-chip
Details: compound 0.02 µM
measure.name: inhibition (%)

[[record]]
smiles_str = "CNC(=O)c1ccccc1Sc1ccc2c(/C=C/c3ccccn3)n[nH]c2c1"
target_or_test_system = "SRMS (human) (UniProt Q9H3Y6)"
recorded_number = -4.9

[[record]]
smiles_str = "COc1cc2c(Oc3ccc4[nH]c(C)cc4c3F)ncnc2cc1OCCCN1CCCC1"
target_or_test_system = "SRMS (human) (UniProt Q9H3Y6)"
recorded_number = -0.7

[[record]]
smiles_str = "CNC(=O)c1cc(Oc2ccc(NC(=O)Nc3ccc(Cl)c(C(F)(F)F)c3)cc2)ccn1"
target_or_test_system = "SRMS (human) (UniProt Q9H3Y6)"
recorded_number = -0.4

[[record]]
smiles_str = "Cc1ccc(Nc2nccc(N(C)c3ccc4c(C)n(C)nc4c3)n2)cc1S(N)(=O)=O"
target_or_test_system = "SRMS (human) (UniProt Q9H3Y6)"
recorded_number = 1.1


----------
Biological target: ALK (human)
Assay: Caliper, Mobility shift assay off-chip
Conditions: compound 0.2 µM
measure.name: inhibition (%)

[[record]]
smiles_str = "COc1cc2c(Oc3ccc4[nH]c(C)cc4c3F)ncnc2cc1OCCCN1CCCC1"
measure_name = "inhibition"
recorded_number = 10.6

[[record]]
smiles_str = "CCN(CC)CCNC(=O)c1c(C)[nH]c(/C=C2\\C(=O)Nc3ccc(F)cc32)c1C"
measure_name = "inhibition"
recorded_number = 82.2

[[record]]
smiles_str = "CNC(=O)c1cc(Oc2ccc(NC(=O)Nc3ccc(Cl)c(C(F)(F)F)c3)cc2)ccn1"
measure_name = "inhibition"
recorded_number = 5.8

[[record]]
smiles_str = "Cc1ccc(Nc2nccc(N(C)c3ccc4c(C)n(C)nc4c3)n2)cc1S(N)(=O)=O"
measure_name = "inhibition"
recorded_number = 7.9


----------
Attribute: inhibition
Molecular target: RPS6KB2 (human)
Experiment: Caliper, Mobility shift assay off-chip
Conditions: compound 0.02 µM
measure.name: inhibition (%)

[[record]]
smiles_str = "CNC(=O)c1ccccc1Sc1ccc2c(/C=C/c3ccccn3)n[nH]c2c1"
measure_name = "inhibition"
recorded_number = 1.8

[[record]]
smiles_str = "COc1cc2c(Oc3ccc4[nH]c(C)cc4c3F)ncnc2cc1OCCCN1CCCC1"
measure_name = "inhibition"
recorded_number = 1

[[record]]
smiles_str = "Cc1ccc(Nc2nccc(N(C)c3ccc4c(C)n(C)nc4c3)n2)cc1S(N)(=O)=O"
measure_name = "inhibition"
recorded_number = 4.3

[[record]]
smiles_str = "CNC(=O)c1cc(Oc2ccc(NC(=O)Nc3ccc(Cl)c(C(F)(F)F)c3)cc2)ccn1"
measure_name = "inhibition"
recorded_number = 6.3


----------
This listing pairs compounds with measured inhibition.
Target: PRKCG (human)
Test: Caliper, Mobility shift assay off-chip
Settings: compound 0.02 µM
measure.name: inhibition (%)

[[record]]
smiles_str = "Cc1ccc(Nc2nccc(N(C)c3ccc4c(C)n(C)nc4c3)n2)cc1S(N)(=O)=O"
measure_name = "inhibition"
recorded_number = 4

[[record]]
smiles_str = "CNC(=O)c1ccccc1Sc1ccc2c(/C=C/c3ccccn3)n[nH]c2c1"
measure_name = "inhibition"
recorded_number = 17.3

[[record]]
smiles_str = "CNC(=O)c1cc(Oc2ccc(NC(=O)Nc3ccc(Cl)c(C(F)(F)F)c3)cc2)ccn1"
measure_name = "inhibition"
recorded_number = -2.1

[[record]]
smiles_str = "COc1cc2c(Oc3ccc4[nH]c(C)cc4c3F)ncnc2cc1OCCCN1CCCC1"
measure_name = "inhibition"
recorded_number = 3.8


----------
Biological target: UniProtKB O00444
Sequence (O00444 whole entry, looked up): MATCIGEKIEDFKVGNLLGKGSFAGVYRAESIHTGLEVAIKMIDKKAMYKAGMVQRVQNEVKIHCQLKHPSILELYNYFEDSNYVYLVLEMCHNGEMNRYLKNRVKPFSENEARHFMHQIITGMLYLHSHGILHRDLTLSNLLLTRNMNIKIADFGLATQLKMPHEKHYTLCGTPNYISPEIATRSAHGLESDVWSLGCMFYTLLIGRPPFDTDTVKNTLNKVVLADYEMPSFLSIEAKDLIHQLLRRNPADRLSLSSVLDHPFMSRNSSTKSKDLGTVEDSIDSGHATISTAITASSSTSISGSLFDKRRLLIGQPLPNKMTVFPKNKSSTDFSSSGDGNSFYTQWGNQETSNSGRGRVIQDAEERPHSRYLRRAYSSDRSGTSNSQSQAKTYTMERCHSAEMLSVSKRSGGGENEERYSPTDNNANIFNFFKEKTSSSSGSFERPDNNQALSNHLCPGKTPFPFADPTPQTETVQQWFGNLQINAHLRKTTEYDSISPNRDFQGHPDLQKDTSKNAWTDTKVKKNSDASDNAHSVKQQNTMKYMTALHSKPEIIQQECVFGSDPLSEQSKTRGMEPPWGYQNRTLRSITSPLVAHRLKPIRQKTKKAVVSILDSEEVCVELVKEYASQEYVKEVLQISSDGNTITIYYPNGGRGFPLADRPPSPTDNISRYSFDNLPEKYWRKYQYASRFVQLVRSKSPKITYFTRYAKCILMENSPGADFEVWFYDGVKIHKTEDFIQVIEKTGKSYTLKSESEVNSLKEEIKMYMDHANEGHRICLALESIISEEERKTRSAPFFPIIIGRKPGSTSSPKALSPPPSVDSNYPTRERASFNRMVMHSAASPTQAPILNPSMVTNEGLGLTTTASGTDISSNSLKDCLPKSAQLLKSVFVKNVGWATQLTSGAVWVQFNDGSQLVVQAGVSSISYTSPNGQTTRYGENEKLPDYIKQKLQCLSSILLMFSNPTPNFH
Experiment: ELISA
Details: compound 0.02 µM
measure.name: inhibition (%)

[[record]]
smiles_str = "Cc1ccc(Nc2nccc(N(C)c3ccc4c(C)n(C)nc4c3)n2)cc1S(N)(=O)=O"
target_or_test_system = "UniProtKB O00444"
unit_descriptor = "%"
recorded_number = 8.8

[[record]]
smiles_str = "CNC(=O)c1cc(Oc2ccc(NC(=O)Nc3ccc(Cl)c(C(F)(F)F)c3)cc2)ccn1"
target_or_test_system = "UniProtKB O00444"
unit_descriptor = "%"
recorded_number = 10.5

[[record]]
smiles_str = "CNC(=O)c1ccccc1Sc1ccc2c(/C=C/c3ccccn3)n[nH]c2c1"
target_or_test_system = "UniProtKB O00444"
unit_descriptor = "%"
recorded_number = 48.9

[[record]]
smiles_str = "COc1cc2c(Oc3ccc4[nH]c(C)cc4c3F)ncnc2cc1OCCCN1CCCC1"
target_or_test_system = "UniProtKB O00444"
unit_descriptor = "%"
recorded_number = 7.6


----------
Biological target: UniProt Q16512
Sequence (Q16512 whole entry, looked up): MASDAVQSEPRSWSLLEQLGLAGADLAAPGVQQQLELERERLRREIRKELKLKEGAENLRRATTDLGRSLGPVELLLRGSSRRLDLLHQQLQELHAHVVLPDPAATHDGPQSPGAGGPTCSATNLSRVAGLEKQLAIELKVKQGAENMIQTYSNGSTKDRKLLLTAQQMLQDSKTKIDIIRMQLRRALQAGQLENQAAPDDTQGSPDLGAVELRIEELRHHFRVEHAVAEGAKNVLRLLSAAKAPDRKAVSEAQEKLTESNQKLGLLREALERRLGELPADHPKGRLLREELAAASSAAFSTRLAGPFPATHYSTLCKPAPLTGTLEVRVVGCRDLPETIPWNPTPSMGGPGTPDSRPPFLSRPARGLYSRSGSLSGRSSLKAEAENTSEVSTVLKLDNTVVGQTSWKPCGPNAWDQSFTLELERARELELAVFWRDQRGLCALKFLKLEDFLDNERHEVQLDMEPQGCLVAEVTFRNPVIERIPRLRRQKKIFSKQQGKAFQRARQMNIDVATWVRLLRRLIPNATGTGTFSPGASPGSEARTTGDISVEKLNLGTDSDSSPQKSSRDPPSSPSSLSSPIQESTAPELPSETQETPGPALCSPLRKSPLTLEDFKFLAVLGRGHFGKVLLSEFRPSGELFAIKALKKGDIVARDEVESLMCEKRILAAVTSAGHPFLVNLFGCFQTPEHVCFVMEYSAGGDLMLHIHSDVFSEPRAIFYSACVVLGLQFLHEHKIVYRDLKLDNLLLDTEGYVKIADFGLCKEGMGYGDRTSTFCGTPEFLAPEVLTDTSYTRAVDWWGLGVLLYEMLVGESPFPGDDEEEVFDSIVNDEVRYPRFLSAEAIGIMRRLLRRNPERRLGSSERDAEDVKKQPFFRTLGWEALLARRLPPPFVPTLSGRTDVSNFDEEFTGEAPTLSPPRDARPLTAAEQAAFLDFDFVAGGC
Test: IMAP-FP
Conditions: compound 0.02 µM
measure.name: inhibition (%)

[[record]]
smiles_str = "Cc1ccc(Nc2nccc(N(C)c3ccc4c(C)n(C)nc4c3)n2)cc1S(N)(=O)=O"
measure_name = "inhibition"
recorded_number = -20.5

[[record]]
smiles_str = "COc1cc2c(Oc3ccc4[nH]c(C)cc4c3F)ncnc2cc1OCCCN1CCCC1"
measure_name = "inhibition"
recorded_number = -35.8

[[record]]
smiles_str = "CNC(=O)c1cc(Oc2ccc(NC(=O)Nc3ccc(Cl)c(C(F)(F)F)c3)cc2)ccn1"
measure_name = "inhibition"
recorded_number = -40.2

[[record]]
smiles_str = "CNC(=O)c1ccccc1Sc1ccc2c(/C=C/c3ccccn3)n[nH]c2c1"
measure_name = "inhibition"
recorded_number = -21.6


----------
Property: inhibition; scope: individual molecules
Molecular target: UniProt P41240
Sequence (P41240 whole entry, looked up): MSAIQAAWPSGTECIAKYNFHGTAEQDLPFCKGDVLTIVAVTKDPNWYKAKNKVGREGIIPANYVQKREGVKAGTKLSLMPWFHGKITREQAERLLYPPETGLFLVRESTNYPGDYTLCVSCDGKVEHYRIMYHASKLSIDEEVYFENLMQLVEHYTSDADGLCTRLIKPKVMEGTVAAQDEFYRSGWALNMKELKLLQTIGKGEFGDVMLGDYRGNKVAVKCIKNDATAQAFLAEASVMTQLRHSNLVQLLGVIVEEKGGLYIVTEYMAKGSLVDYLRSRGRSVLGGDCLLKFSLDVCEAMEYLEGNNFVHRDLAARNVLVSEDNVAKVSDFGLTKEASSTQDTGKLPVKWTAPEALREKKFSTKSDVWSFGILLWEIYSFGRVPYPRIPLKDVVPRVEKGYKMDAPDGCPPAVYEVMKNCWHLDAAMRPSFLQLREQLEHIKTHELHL
Test: Caliper, Mobility shift assay off-chip
Settings: compound 0.02 µM
measure.name: inhibition (%)

[[record]]
smiles_str = "COc1cc2c(Oc3ccc4[nH]c(C)cc4c3F)ncnc2cc1OCCCN1CCCC1"
target_or_test_system = "UniProt P41240"
measure_name = "inhibition"
recorded_number = -6.7

[[record]]
smiles_str = "CNC(=O)c1cc(Oc2ccc(NC(=O)Nc3ccc(Cl)c(C(F)(F)F)c3)cc2)ccn1"
target_or_test_system = "UniProt P41240"
measure_name = "inhibition"
recorded_number = -9.3

[[record]]
smiles_str = "CNC(=O)c1ccccc1Sc1ccc2c(/C=C/c3ccccn3)n[nH]c2c1"
target_or_test_system = "UniProt P41240"
measure_name = "inhibition"
recorded_number = -6.7

[[record]]
smiles_str = "Cc1ccc(Nc2nccc(N(C)c3ccc4c(C)n(C)nc4c3)n2)cc1S(N)(=O)=O"
target_or_test_system = "UniProt P41240"
measure_name = "inhibition"
recorded_number = -4.8

